- system_name: CETP (Homo sapiens, UniProt P11597)
- Sequence (P11597 18-493): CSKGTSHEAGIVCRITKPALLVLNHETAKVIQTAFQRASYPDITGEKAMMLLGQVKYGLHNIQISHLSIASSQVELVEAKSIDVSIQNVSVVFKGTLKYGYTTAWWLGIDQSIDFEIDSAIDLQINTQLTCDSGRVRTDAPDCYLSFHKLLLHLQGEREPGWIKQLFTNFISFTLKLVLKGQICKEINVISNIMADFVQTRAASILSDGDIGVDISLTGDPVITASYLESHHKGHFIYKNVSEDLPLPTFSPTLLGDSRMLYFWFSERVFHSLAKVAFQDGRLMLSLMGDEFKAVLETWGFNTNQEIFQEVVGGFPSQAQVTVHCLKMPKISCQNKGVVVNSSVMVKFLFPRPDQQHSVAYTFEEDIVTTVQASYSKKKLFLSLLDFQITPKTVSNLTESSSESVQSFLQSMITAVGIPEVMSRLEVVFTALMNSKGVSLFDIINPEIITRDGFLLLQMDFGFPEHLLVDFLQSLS
- method_notes: Assay of CETP inhibition using purified components (reconstituted buffer assay): transfer of [3H]CE from HDL to LDL
- Format: biochemical
- Design: made in house; host or cells: CHO cells (serum-free conditioned medium)
- cond: 2 hours at 37°C
assay_endpoint: IC50 (µM)

Here are 5 compounds together with their reported answers.
{"compound": "OC(CN(Cc1cccc(OC2CCCC2)c1)c1cccc(Oc2ccc(F)cc2)c1)C(F)(F)F (stereo not shown)", "display_unit": "µM", "IC50": 0.91}
{"compound": "CCC(C)Oc1cccc(CN(CC(O)C(F)(F)F)c2cccc(Oc3ccc(F)cc3)c2)c1 (stereo not shown)", "display_unit": "µM", "IC50": 0.41}
{"compound": "OC(CN(Cc1cccc(C(F)(F)F)c1)c1cc(Oc2ccc(F)cc2)cc(C(F)(F)F)c1)C(F)(F)F (stereo not shown)", "display_unit": "µM", "IC50": 11}
{"compound": "OC(COC(F)(F)C(F)F)CN(Cc1cccc(OC(F)(F)C(F)F)c1)c1cccc(Oc2ccc(F)cc2)c1 (stereo not shown)", "display_unit": "µM", "IC50": 4.5}
{"compound": "OC(CN(Cc1ccccc1F)Cc1ccccc1C(F)(F)F)C(F)(F)F (stereo not shown)", "display_unit": "µM", "IC50": 100}

a. OC(CN(Cc1ccc(-c2ccccc2)cc1)c1cccc(OC(F)(F)F)c1)C(F)(F)F (stereo not shown)
b. OC(COC(F)(F)C(F)F)CN(Cc1cccc(OC(F)(F)C(F)F)c1)c1cccc(Oc2ccc(C(F)(F)F)cc2)c1 (stereo not shown)
Q. Lab note: check whether a or b shows the higher recorded IC50. Answer format: the label of the selected item.
A. a

I. OCCCOc1cccc(N(Cc2cccc(OC(F)(F)C(F)F)c2)CC(O)C(F)(F)F)c1 (stereo not shown)
II. OC(CN(Cc1cccc(SC(F)(F)F)c1)c1cc(Oc2ccc(F)cc2)cc(C(F)(F)F)c1)C(F)(F)F (stereo not shown)
Q. Param pair: I , II . Output: the one whose IC50 is numerically greater. Field: selected label. Fill in the label of the entry you choose.
A. I

I. COc1ccc(OC)c(C(=O)CN(CC(O)C(F)(F)F)c2cccc(OC(F)(F)F)c2)c1 (stereo not shown)
II. OC(CN(Cc1cccc(OCC2CC2)c1)c1cccc(Oc2ccc(F)cc2)c1)C(F)(F)F (stereo not shown)
III. OC(CN(Cc1cccc(OC(F)(F)C(F)F)c1)c1cccc(Cc2ccccc2)c1)C(F)(F)F (stereo not shown)
Q. Please order the records by their reported IC50, lowest number first. Response format: the labels, sorted as the prompt asks.
A. II, III, I

I. OC(CN(Cc1cccc(Oc2ccc(Cl)cc2)c1)c1cccc(OC(F)(F)F)c1)C(F)(F)F (stereo not shown)
II. OC(CN(Cc1cccc(OC(F)(F)C(F)F)c1)c1cccc(OCc2cc(F)cc(C(F)(F)F)c2)c1)C(F)(F)F (stereo not shown)
III. OC(CN(Cc1cccc(OC(F)(F)C(F)F)c1)c1cccc(OCc2ccccn2)c1)C(F)(F)F (stereo not shown)
IV. OC(CN(Cc1cccc(OC(F)(F)C(F)F)c1)c1cccc(Oc2ccc(OC(F)(F)F)cc2)c1)C(F)(F)F (stereo not shown)
V. OC(CN(Cc1cccc(OC(F)(F)C(F)F)c1)c1cccc(N2CCC(Cc3ccccc3)CC2)c1)C(F)(F)F (stereo not shown)
Q. List items by IC50 in falling order. Please list the labels in the order you were asked to rank them.
A. I, V, III, IV, II
(I: 50 µM, V: 3.1 µM, III: 1.7 µM, IV: 0.44 µM, II: 0.25 µM)

a. COc1cccc(N(Cc2cccc(C)c2)CC(O)C(F)(F)F)c1 (stereo not shown)
b. OC(CN(Cc1cccc(OC(F)(F)C(F)F)c1)c1cccc(OCc2cccc(SC(F)(F)F)c2)c1)C(F)(F)F (stereo not shown)
Q. Field: lower IC50 | Options: a / b Give the chosen item's label as your response.
A. b

I. CC(C)COc1cccc(CN(CC(O)C(F)(F)F)c2cccc(Oc3ccc(F)cc3)c2)c1 (stereo not shown)
II. O=C(OC(CN(C(=O)c1cccc(C(F)(F)F)c1)c1cccc(F)c1)C(F)(F)F)c1cccc(C(F)(F)F)c1 (stereo not shown)
Q. Would you kindly point out which of I and II has the smaller IC50 figure? Mark your selection by writing its label.
A. I
(I: 1.5 µM, II: 50 µM)
